# Tested on: HCV pseudoparticles (genotype 1a HCV E1 and E2 envelope, H77C isolate)
# EXPERIMENT_DESCRIPTION: microbe, parasite or virus in culture
# Assay type: cell-based
# TEST_PARAMETERS: read-out: EC50
pEC50: −log10 of the molar value.
# pEC50 listing for each entry below

A selection of reference data follows.
COMPOUND: NC[C@H](NC(=O)c1ccc2cc1OCCCCCCOc1ccc(cc1)CNc1nc(nc(OCC(F)(F)F)n1)N2)C(=O)O
pEC50: 7.00 to 10.00

COMPOUND: O=C(O)c1ccc2cc1OCCCC=CCCCOc1ccc(cc1)CNc1nc(nc(OCC(F)(F)F)n1)N2
pEC50: 4.30 to 6.00

COMPOUND: COC(=O)c1ccc2cc1OCCCC=CCCCOc1ccc(cc1)CNc1nc(nc(OCC(F)(F)F)n1)N2
pEC50: 6.00 to 7.00

COMPOUND: O=C(NC(C(=O)O)C1CCNC1)c1ccc2cc1OCCCCCCOc1ccc(cc1)CNc1nc(nc(OCC(F)(F)F)n1)N2 (stereo not shown)
pEC50: 7.00 to 10.00

COMPOUND: C=C1CNCCNc2nc(nc(OCC(F)(F)F)n2)Nc2cccc(c2)CNC1
pEC50: 4.30 to 6.00

pEC50 of COC(=O)c1ccc2cc1OCCCCOC[C@H](c1ccccc1)Nc1nc(nc(OCC(F)(F)F)n1)N2 on HCV pseudoparticles (genotype 1a HCV E1 and E2 envelope, H77C isolate)?
4.30 to 6.00

pEC50 of O=C(O)c1ccc2cc1OCCCCOC[C@H](c1ccccc1)Nc1nc(nc(OCC(F)(F)F)n1)N2 on HCV pseudoparticles (genotype 1a HCV E1 and E2 envelope, H77C isolate)?
4.30 to 6.00

---

# System: HCV pseudoparticles (genotype 1a HCV E1 and E2 envelope, H77C isolate)
# EXPERIMENT_DESCRIPTION: microbe, parasite or virus in culture
# Type: cell-based
# TEST_PARAMETERS: Hepatitis C virus, Huh-7, 48 h, class symbol; HCV pseudoparticles genotype 1a (H77C), Huh7 cells, luciferase 2 days after infection, average of duplicates
pEC50: −log10 of the molar value.
# pEC50 listing for each entry below

A selection of reference data follows.
MOLECULE: FC(F)(F)COc1nc2nc(n1)Nc1cccc(c1)OCCCCOc1cccc(c1)N2 [Example 2004]
MEASUREMENT_TARGET: HCV pseudoparticles (genotype 1a HCV E1 and E2 envelope, H77C isolate)
VALUE: 7.00 to 10.00

MOLECULE: N=C(N)NCCCCNC(=O)c1ccc2cc1OCCCCCCOc1ccc(cc1)CNc1nc(nc(OCC(F)(F)F)n1)N2 [Example 1314]
MEASUREMENT_TARGET: HCV pseudoparticles (genotype 1a HCV E1 and E2 envelope, H77C isolate)
VALUE: 7.00 to 10.00

I'd like to know its pEC50. The molecule in question is COC(=O)CCNC(=O)c1ccc2cc1OCCCCCCOc1ccc(cc1)CNc1nc(nc(OCC(F)(F)F)n1)N2 [Example 1303]
6.00 to 7.00

I'd like to know its pEC50. The molecule in question is O=C(O)c1ccc2cc1OCCCCCCOc1ccc(cc1)CNc1nc(nc(OCC(F)(F)F)n1)N2 [Example 1302]
4.30 to 6.00

I'd like to know its pEC50. The molecule in question is CC(C)(C)OC(=O)NC[C@H](NC(=O)c1ccc2cc1OCCOCCOCCOc1ccc(cc1)CNc1nc(nc(OCC(F)(F)F)n1)N2)C(=O)O [Example 1608]
7.00 to 10.00

I'd like to know its pEC50. The molecule in question is C=C1COc2ccc(cc2)CNc2nc(nc(OCC(F)(F)F)n2)Nc2ccc(C(=O)O)c(c2)OC1 [Example 1005]
4.30 to 6.00

I'd like to know its pEC50. The molecule in question is CC(C)(C)OC(=O)N1CCCOc2cccc(c2)CNc2nc(nc(OCC(F)(F)F)n2)Nc2ccc(C(=O)NCC3(CN4CCCC4)CC3)c(c2)OCCC1 [Example 3024]
6.00 to 7.00

I'd like to know its pEC50. The molecule in question is O=C(CNC(=O)c1ccc2cc1OCCCCCCCCOc1ccc(cc1)CNc1nc(nc(OCC(F)(F)F)n1)N2)NS(=O)(=O)C1CC1 [Example 1133]
6.00 to 7.00

I'd like to know its pEC50. The molecule in question is COC(=O)[C@H](CNC(=O)c1ccccc1)NC(=O)c1ccc2cc1OCCCCCCOc1ccc(cc1)CNc1nc(nc(OCC(F)(F)F)n1)N2 [Example 1323]
7.00 to 10.00

I'd like to know its pEC50. The molecule in question is COC(=O)[C@H](CNC(=O)OC(C)(C)C)NC(=O)c1ccc2cc1OCCCCCCOc1ccc(cc1)CNc1nc(nc(OCC(F)(F)F)n1)N2 [Example 1321]
7.00 to 10.00

I'd like to know its pEC50. The molecule in question is CCOC(=O)[C@H](CCCNC(=N)N)NC(=O)c1ccc2cc1OCCCCCCOc1ccc(cc1)CNc1nc(nc(OCC(F)(F)F)n1)N2 [Example 1317]
7.00 to 10.00

I'd like to know its pEC50. The molecule in question is CN(C)CC(C)(C)CNC(=O)c1ccc2cc1OCCCCCOc1ccc(cc1)CNc1nc(nc(OCC(F)(F)F)n1)N2 [Example 1009]
7.00 to 10.00

I'd like to know its pEC50. The molecule in question is COC(=O)c1ccc2cc1OCC=CCOc1ccc(cc1)CNc1nc(nc(OCC(F)(F)F)n1)N2 [Example 2005]
7.00 to 10.00

I'd like to know its pEC50. The molecule in question is O=C(NC[C@H](NC(=O)c1ccc2cc1OCCCCCCOc1ccc(cc1)CNc1nc(nc(OCC(F)(F)F)n1)N2)C(=O)O)c1ccccc1 [Example 1562]
7.00 to 10.00

---

# System: HCV pseudoparticles (genotype 1a HCV E1 and E2 envelope, H77C isolate)
# EXPERIMENT_DESCRIPTION: microbe, parasite or virus in culture
# Assay type: cell-based
# TEST_PARAMETERS: Hepatitis C virus, Huh-7, 48 h, class symbol; HCV pseudoparticles genotype 1a (H77C), Huh7 cells, luciferase 2 days after infection, average of duplicates
ASSAY_READOUT: EC50

A selection of reference data follows.
MOLECULE: COC(=O)C(NC(=O)c1ccc2cc1OCCCCCCOc1ccc(cc1)CNc1nc(nc(OCC(F)(F)F)n1)N2)C1CCN(C(=O)OC(C)(C)C)C1 (stereo not shown)
EC50: 0.1 to 100 nM
//
MOLECULE: CCCCN1CCCOc2ccc(cc2)CNc2nc(nc(OCC(F)(F)F)n2)Nc2ccc(C(=O)NCC3(CN4CCCC4)CC3)c(c2)OCCC1
EC50: 0.1 to 100 nM
//
MOLECULE: CCOC(=O)[C@@H]1CN(C(=O)OC(C)(C)C)C[C@H]1NC(=O)c1ccc2cc1OCCCCCCOc1ccc(cc1)CNc1nc(nc(OCC(F)(F)F)n1)N2
EC50: 0.1 to 100 nM
//
MOLECULE: CC(C)NC(=O)N1CCCOc2ccc(cc2)CNc2nc(nc(OCC(F)(F)F)n2)Nc2ccc(C(=O)NCC3(CN4CCCC4)CC3)c(c2)OCCC1
EC50: 0.1 to 100 nM
//
MOLECULE: CNC(=O)NC[C@H](NC(=O)c1ccc2cc1OCCCCCCOc1ccc(cc1)CNc1nc(nc(OCC(F)(F)F)n1)N2)C(=O)OC
EC50: 0.1 to 100 nM
//
MOLECULE: CC(C)CN1CCCOc2ccc(cc2)CNc2nc(nc(OCC(F)(F)F)n2)Nc2ccc(C(=O)NCC3(CN4CCCC4)CC3)c(c2)OCCC1
EC50: 0.1 to 100 nM
//
MOLECULE: O=C(NCC1(CN2CCCC2)CC1)c1ccc2cc1OCCCNCCCCCCCCNc1nc(nc(OCC(F)(F)F)n1)N2
EC50: 0.1 to 100 nM
//
MOLECULE: CC(C)(C)OC(=O)N1CCC(C(NC(=O)c2ccc3cc2OCCCCCCOc2ccc(cc2)CNc2nc(nc(OCC(F)(F)F)n2)N3)C(=O)O)CC1 (stereo not shown)
EC50: 0.1 to 100 nM

Now examine the next entry.
EC50 of CC(C)(C)OC(=O)NC[C@@H](NC(=O)c1ccc2cc1OCCCCCCOc1ccc(cc1)CNc1nc(nc(OCC(F)(F)F)n1)N2)C(=O)O on HCV pseudoparticles (genotype 1a HCV E1 and E2 envelope, H77C isolate)?
100 to 1000 nM

---

# Test system: HCV pseudoparticles (genotype 1a HCV E1 and E2 envelope, H77C isolate)
# EXPERIMENT_DESCRIPTION: microbe, parasite or virus in culture
# Assay type: cell-based
# TEST_PARAMETERS: Hepatitis C virus, Huh-7, 48 h, class symbol; HCV pseudoparticles genotype 1a (H77C), Huh7 cells, luciferase 2 days after infection, average of duplicates
pEC50: −log10 of the molar value.
ASSAY_READOUT: pEC50

A selection of reference data follows.
SMILES_TEXT: O=C(NCC1(CN2CCCC2)CC1)c1ccc2cc1OCCCCCCCCOc1ccc(cc1)CNc1nc(nc(OCC(F)(F)F)n1)N2
VALUE: 7.00 to 10.00

SMILES_TEXT: CN(C)CC(C)(C)CNC(=O)c1ccc2cc1OCCCCCCCOc1ccc(cc1)CNc1nc(nc(OCC(F)(F)F)n1)N2
VALUE: 7.00 to 10.00

I'd like to know its pEC50. The molecule in question is CC(C)(C)OC(=O)N1CCC(NC(=O)c2ccc3cc2OCCCCCCOc2ccc(cc2)CNc2nc(nc(OCC(F)(F)F)n2)N3)(C(=O)O)CC1
6.00 to 7.00
